- SUBJECT OF TEST: UniProt:Q06830
- Sequence (Q06830 whole entry): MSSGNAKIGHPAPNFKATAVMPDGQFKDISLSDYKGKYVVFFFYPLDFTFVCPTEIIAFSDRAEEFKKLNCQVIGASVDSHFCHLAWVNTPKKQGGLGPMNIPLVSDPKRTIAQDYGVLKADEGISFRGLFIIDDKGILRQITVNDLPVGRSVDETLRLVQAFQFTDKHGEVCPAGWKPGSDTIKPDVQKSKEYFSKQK
- METHOD SUMMARY: SPR
- Type: binding
METRIC: pKd
Answers are plain numbers, as −log10 of the molar value.

Exam item: // fetch UniProt:Q06830 pKd for O=C(/C=C/c1ccc(O)c(O)c1)O[C@H](Cc1ccc(O)c(O)c1)C(=O)O [RA, rosmarinic acid]
Marked response: 6.43

The measured values listed here are drawn from paper PMC11724923.
